system: Pfeiffer cells; assay: Cell proliferation test (Cell counting kit-8, 6 days); assay type: cell-based; conditions: Pfeiffer (CRL-2632) cells, culture for 6 days, viable cells by Cell counting kit-8
Reported pIC50 by item:
The value called pIC50 is obtained by taking minus log10 of the concentration in mol/L.

Per the record, C=CCC1(S(=O)(=O)n2cc(C)c3c(C(=O)NCc4c(C)cc(C)[nH]c4=O)cc(-c4ccc(CN(C)C)cc4)cc32)CC1 [Compound G-6] has pIC50 of 6.45

Next:
Per the record, C=CCC1(S(=O)(=O)n2cc(C)c3c(C(=O)NCc4c(C)cc(C)[nH]c4=O)cc(-c4ccc(OCCN(C)C)cc4)cc32)CC1 [Compound G-5] has pIC50 of 6.37

Per the record, C=CCC1(S(=O)(=O)N2CCc3c(C(=O)NCc4c(C)cc(C)[nH]c4=O)cc(-c4ccc(N5CCN(C)CC5)nc4)cc32)CC1 [Compound G-76] has pIC50 of 5.59

###

target: EZH2 Y641F (Homo sapiens (Human), UniProt Q15910, Y641F); assay: In vitro methyltransferase activity test (LANCE Ultra); details: Recombinant PRC2 (EZH2-Y641F), 2.5 μM SAM/250 nM H3(1-50)K27me1, 3 hours, room temperature
Sequence (Q15910 whole entry Y641F): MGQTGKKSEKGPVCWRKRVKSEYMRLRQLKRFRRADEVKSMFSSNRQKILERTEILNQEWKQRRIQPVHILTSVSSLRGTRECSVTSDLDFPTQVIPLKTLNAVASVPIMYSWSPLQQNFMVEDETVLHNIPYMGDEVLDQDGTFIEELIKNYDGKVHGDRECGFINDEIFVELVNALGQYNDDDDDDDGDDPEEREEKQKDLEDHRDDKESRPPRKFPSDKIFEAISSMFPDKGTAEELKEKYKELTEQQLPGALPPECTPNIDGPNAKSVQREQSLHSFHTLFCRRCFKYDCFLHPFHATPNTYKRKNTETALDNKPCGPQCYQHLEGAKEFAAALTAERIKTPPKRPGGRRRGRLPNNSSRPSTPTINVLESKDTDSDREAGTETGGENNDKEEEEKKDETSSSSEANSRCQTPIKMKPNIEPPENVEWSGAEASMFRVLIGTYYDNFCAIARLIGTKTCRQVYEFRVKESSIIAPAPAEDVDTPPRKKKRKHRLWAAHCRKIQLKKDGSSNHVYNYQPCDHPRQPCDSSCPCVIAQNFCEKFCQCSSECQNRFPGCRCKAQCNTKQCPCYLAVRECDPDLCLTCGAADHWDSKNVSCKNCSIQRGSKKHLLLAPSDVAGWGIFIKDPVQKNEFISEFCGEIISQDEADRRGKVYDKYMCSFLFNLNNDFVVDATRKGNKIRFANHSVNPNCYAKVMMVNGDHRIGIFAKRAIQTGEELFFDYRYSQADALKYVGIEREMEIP
Sequence (O75530 whole entry partner): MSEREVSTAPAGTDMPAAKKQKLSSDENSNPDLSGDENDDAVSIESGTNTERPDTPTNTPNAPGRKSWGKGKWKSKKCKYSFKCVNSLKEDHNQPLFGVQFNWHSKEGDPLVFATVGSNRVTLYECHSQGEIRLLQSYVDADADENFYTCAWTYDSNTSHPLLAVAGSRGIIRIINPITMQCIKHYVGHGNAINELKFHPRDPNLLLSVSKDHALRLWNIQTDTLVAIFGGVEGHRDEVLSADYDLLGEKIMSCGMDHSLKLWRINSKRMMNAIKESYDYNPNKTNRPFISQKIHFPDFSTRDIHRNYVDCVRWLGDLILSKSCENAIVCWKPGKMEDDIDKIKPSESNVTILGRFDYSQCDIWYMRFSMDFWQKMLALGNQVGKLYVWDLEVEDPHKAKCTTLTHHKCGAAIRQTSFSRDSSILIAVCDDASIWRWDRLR
Sequence (Q15022 whole entry partner): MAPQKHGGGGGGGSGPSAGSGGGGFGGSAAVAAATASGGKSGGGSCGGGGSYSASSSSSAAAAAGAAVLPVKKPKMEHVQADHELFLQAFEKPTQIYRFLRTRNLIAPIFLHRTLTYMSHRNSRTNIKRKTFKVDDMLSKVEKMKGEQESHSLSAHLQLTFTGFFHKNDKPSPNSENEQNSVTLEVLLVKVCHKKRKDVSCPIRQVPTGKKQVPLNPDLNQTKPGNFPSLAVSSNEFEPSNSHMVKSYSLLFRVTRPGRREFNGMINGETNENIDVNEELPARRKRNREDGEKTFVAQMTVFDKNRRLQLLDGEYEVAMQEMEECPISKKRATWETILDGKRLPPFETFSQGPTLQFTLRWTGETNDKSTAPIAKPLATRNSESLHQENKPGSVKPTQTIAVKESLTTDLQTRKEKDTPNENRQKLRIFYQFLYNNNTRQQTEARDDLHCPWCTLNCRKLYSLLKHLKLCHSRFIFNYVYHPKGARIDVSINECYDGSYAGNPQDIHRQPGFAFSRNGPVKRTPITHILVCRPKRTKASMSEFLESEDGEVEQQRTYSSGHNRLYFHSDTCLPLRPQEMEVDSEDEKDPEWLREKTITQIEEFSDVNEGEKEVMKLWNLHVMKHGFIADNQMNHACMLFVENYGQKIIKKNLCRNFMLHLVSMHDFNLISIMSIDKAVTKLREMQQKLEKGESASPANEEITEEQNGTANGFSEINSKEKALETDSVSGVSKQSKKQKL
Sequence (Q09028 whole entry partner): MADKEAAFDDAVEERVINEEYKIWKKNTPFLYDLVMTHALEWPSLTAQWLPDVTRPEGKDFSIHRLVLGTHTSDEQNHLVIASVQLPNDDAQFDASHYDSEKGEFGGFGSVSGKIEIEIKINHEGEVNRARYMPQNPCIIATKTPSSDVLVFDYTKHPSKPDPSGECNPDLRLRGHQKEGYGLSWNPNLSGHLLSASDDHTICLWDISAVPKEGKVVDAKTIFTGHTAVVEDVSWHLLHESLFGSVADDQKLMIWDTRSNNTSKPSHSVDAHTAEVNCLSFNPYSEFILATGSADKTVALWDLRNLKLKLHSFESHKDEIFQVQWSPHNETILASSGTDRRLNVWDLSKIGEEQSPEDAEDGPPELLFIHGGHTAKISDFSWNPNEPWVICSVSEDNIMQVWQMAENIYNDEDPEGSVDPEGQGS
Sequence (Q6ZN18 whole entry partner): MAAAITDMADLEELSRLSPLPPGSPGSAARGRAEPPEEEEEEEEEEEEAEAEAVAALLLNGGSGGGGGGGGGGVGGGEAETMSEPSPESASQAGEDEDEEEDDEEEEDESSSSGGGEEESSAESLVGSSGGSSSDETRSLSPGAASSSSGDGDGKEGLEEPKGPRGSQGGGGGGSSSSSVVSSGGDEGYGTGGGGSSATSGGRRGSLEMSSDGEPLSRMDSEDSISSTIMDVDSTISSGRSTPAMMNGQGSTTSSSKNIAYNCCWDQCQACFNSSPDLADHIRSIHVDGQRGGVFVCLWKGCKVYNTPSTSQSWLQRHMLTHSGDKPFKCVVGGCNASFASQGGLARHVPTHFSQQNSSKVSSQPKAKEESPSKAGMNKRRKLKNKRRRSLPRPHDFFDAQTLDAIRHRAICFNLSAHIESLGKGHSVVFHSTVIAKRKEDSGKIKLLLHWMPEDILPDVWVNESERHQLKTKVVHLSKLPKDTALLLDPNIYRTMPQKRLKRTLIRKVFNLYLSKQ
metric: IC50

Example entries begin here.
Per the record, `C=CCC1(S(=O)(=O)n2cc(C)c3c(C(=O)NCc4c(C)cc(C)[nH]c4=O)cc(-c4ccc(CCN5CCOCC5)nc4)cc32)CC1` has IC50 of 28 nM

Per the record, `C=CCC1(S(=O)(=O)n2cc(C)c3c(C(=O)NCc4c(OC)cc(C)[nH]c4=O)cc(-c4cnc(N5CCN(C(C)C)CC5)nc4)cc32)CC1` has IC50 of 7 nM

Per the record, `C=CCC1(S(=O)(=O)n2cc(C)c3c(C(=O)NCc4c(C)cc(C)[nH]c4=O)cc(-c4ccc(F)c(CN(C)C)c4)cc32)CC1` has IC50 of 37 nM

Per the record, `C=CCC1(S(=O)(=O)n2nc(C(F)F)c3c(C(=O)NCc4c(C)cc(C)[nH]c4=O)cc(-c4ccc(N5CCN(C)CC5)nc4)cc32)CC1` has IC50 of 1420 nM

Next:
Per the record, `C=CCC1(S(=O)(=O)n2cc(C)c3c(C(=O)NCc4c(C)cc(C)[nH]c4=O)cc(-c4ccc(C#N)nc4)cc32)CC1` has IC50 of 41 nM

###

tested on: Pfeiffer cells; test: Cell proliferation test (Cell counting kit-8, 6 days); format: cell-based; settings: Pfeiffer (CRL-2632) cells, culture for 6 days, viable cells by Cell counting kit-8
metric: IC50 (µM)
Provide only the numeric value, understood in µM.

Example entries begin here.
Tested on Pfeiffer cells: `C=CCC1(S(=O)(=O)n2cc(C)c3c(C(=O)NCc4c(C)cc(C)[nH]c4=O)cc(-c4ccc(CCN5CCOCC5)nc4)cc32)CC1` . Observed IC50: 0.3

Tested on Pfeiffer cells: `C=CCC1(S(=O)(=O)n2cc(C)c3c(C(=O)NCc4c(OC)cc(C)[nH]c4=O)cc(-c4ccc(N)nc4)cc32)CC1` . Observed IC50: 0.085

In the following, a different compound is considered.
Tested on Pfeiffer cells: `C=CCC1(S(=O)(=O)n2cc(C)c3c(C(=O)NCc4c(C)cc(C)[nH]c4=O)cc(-c4cnc(N5CC(F)C5)nc4)cc32)CC1` . Observed IC50: 0.06

###

Reported pIC50 by item:
molecular target: EZH2 Y641F (Homo sapiens (Human), UniProt Q15910, Y641F); experiment: In vitro methyltransferase activity test (LANCE Ultra); settings: Recombinant PRC2 (EZH2-Y641F), 2.5 μM SAM/250 nM H3(1-50)K27me1, 3 hours, room temperature
The value called pIC50 is obtained by taking minus log10 of the concentration in mol/L.

Example entries begin here.
Per the record, `C=CCC1(S(=O)(=O)n2cc(C)c3c(C(=O)NCc4c(OC)cc(C)[nH]c4=O)cc(-c4ccc(CN(C)C)cc4)cc32)CC1` has pIC50 of 8.10

Per the record, `C=CCC1(S(=O)(=O)n2cc(C)c3c(C(=O)NCc4c(C)cc(C)[nH]c4=O)cc(-c4cccnc4)cc32)CC1` has pIC50 of 7.48

In the following, a different compound is considered.
Per the record, `C=CCC1(S(=O)(=O)n2cc(C)c3c(C(=O)NCc4c(C)cc(C)[nH]c4=O)cc(-c4ccc(N(C)C)nc4)cc32)CC1` has pIC50 of 7.40

###

test system: Pfeiffer cells; test: Cell proliferation test (Cell counting kit-8, 6 days); assay type: cell-based; settings: Pfeiffer (CRL-2632) cells, culture for 6 days, viable cells by Cell counting kit-8
pIC50: −log10 of the molar value.
Threshold 6. pIC50 below it: Y. pIC50 at it or above: N.

Consider the following illustrative entries.
Could you please tell me whether pIC50 recorded for C=CCC1(S(=O)(=O)n2cc(C)c3c(C(=O)NCc4c(C)cc(C)[nH]c4=O)cc(-c4ccc(N)nc4)cc32)CC1 [Compound G-9] is less than 6? N

Could you please tell me whether pIC50 recorded for C=CCC1(S(=O)(=O)n2cc(C)c3c(C(=O)NCc4c(OC)cc(C)[nH]c4=O)cc(-c4ccc(CN(C)C)cc4)cc32)CC1 [Compound G-32] is less than 6? N

Could you please tell me whether pIC50 recorded for C=CCC1(S(=O)(=O)n2cc(C)c3c(C(=O)NCc4c(C)cc(C)[nH]c4=O)cc(-c4ccc(CN(C)C)cc4F)cc32)CC1 [Compound G-18] is less than 6? N

Could you please tell me whether pIC50 recorded for C=CCC1(S(=O)(=O)n2cc(C)c3c(C(=O)NCc4c(C)cc(C)[nH]c4=O)cc(-c4cnc(N5CCN(C)CC5)nc4)cc32)CC1 [Compound G-13] is less than 6? N

Could you please tell me whether pIC50 recorded for C=CCC1(S(=O)(=O)n2cc(C)c3c(C(=O)NCc4c(C)cc(C)[nH]c4=O)cc(-c4ccc(N(C)C)nc4)cc32)CC1 [Compound G-8] is less than 6? N

Could you please tell me whether pIC50 recorded for C=CCC1(S(=O)(=O)n2cc(C)c3c(C(=O)NCc4c(C)cc(C)[nH]c4=O)cc(-c4ccc(CN(C)C)cc4F)cc32)CC1 [Compound G-15] is less than 6? N

Could you please tell me whether pIC50 recorded for C=CCC1(S(=O)(=O)n2cc(C)c3c(C(=O)NCc4c(C)cc(C)[nH]c4=O)cc(-c4cccnc4)cc32)CC1 [Compound G-7] is less than 6? N

Could you please tell me whether pIC50 recorded for C=CCC1(S(=O)(=O)N2CC(C)c3c(C(=O)NCc4c(C)cc(C)[nH]c4=O)cc(-c4ccc(CN(C)C)cc4)cc32)CC1 (stereo not shown) [Compound G-75] is less than 6? Y

Could you please tell me whether pIC50 recorded for Cc1cc(C)c(CNC(=O)c2cc(-c3ccc(N4CCN(C)CC4)nc3)cc3c2CCN3S(=O)(=O)C(C)C)c(=O)[nH]1 [Compound G-47] is less than 6? Y

Could you please tell me whether pIC50 recorded for C=CCC1(S(=O)(=O)n2nc(C)c3c(C(=O)NCc4c(C)cc(C)[nH]c4=O)cc(-c4ccc(N5CCN(C)CC5)nc4)cc32)CC1 [Compound G-79] is less than 6? Y

Next:
Could you please tell me whether pIC50 recorded for C=CCC1(S(=O)(=O)n2nc(C(F)F)c3c(C(=O)NCc4c(C)cc(C)[nH]c4=O)cc(-c4ccc(N5CCN(C)CC5)nc4)cc32)CC1 [Compound G-78] is less than 6? Y

Could you please tell me whether pIC50 recorded for C=CCC1(S(=O)(=O)n2cc(OC)c3c(C(=O)NCc4c(C)cc(C)[nH]c4=O)cc(-c4ccc(N5CCN(C)CC5)nc4)cc32)CC1 [Compound G-14] is less than 6? N

Could you please tell me whether pIC50 recorded for C#CCCS(=O)(=O)n1cc(C)c2c(C(=O)NCc3c(OC)cc(C)[nH]c3=O)cc(-c3ccc(N4CCN(C)CC4)nc3)cc21 [Compound G-81] is less than 6? Y

###

test system: Pfeiffer cells; test: Cell proliferation test (Cell counting kit-8, 6 days); type: cell-based; conditions: Pfeiffer (CRL-2632) cells, culture for 6 days, viable cells by Cell counting kit-8
metric: pIC50
The value called pIC50 is obtained by taking minus log10 of the concentration in mol/L.

Per the record, C=CCC1(S(=O)(=O)N2CC(C)c3c(C(=O)NCc4c(C)cc(C)[nH]c4=O)cc(-c4ccc(N5CCN(C)CC5)nc4)cc32)CC1 (stereo not drawn) [Compound G-77] has pIC50 of 5.82

Next:
Per the record, C=CCC1(S(=O)(=O)n2cc(C)c3c(C(=O)NCc4c(OC)cc(C)[nH]c4=O)cc(-c4cnc(N5CC(F)C5)nc4)cc32)CC1 [Compound G-30] has pIC50 of 7.01

Per the record, C=CCC1(S(=O)(=O)n2cc(C)c3c(C(=O)NCc4c(C)cc(C)[nH]c4=O)cc(-c4ccc(N5CCOCC5)nc4)cc32)CC1 [Compound G-12] has pIC50 of 6.31

Per the record, C=CCC1(S(=O)(=O)n2cc(C)c3c(C(=O)NCc4c(OC(F)F)cc(C)[nH]c4=O)cc(-c4ccc(N5CCN(C)CC5)nc4)cc32)CC1 [Compound G-68] has pIC50 of 6.82

Per the record, C=CCC1(S(=O)(=O)n2cc(C)c3c(C(=O)NCc4c(C)cc(C)[nH]c4=O)cc(-c4cnc(N5CCNCC5)nc4)cc32)CC1 [Compound G-65] has pIC50 of 6.77

Per the record, C=CCC1(S(=O)(=O)n2cc(C)c3c(C(=O)NCc4c(C)cc(C)[nH]c4=O)cc(-c4ccc(CN(C)C)c(F)c4)cc32)CC1 [Compound G-16] has pIC50 of 6.47
